ASSAYED SYSTEM: 5HT2A (Homo sapiens, UniProt P28223)
Sequence (P28223 whole entry): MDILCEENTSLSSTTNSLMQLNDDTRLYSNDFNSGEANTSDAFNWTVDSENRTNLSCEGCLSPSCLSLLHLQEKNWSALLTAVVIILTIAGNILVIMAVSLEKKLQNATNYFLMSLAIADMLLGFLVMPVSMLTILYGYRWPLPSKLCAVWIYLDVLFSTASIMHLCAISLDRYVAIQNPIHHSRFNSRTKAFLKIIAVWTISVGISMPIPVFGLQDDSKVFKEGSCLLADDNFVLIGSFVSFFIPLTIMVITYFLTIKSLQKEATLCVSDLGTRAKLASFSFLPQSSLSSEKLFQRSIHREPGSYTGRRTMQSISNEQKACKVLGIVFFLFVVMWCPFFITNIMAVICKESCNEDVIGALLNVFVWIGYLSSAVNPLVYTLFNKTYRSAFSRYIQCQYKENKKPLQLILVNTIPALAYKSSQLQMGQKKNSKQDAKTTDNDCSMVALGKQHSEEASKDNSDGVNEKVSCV
METHOD DESCRIPTION: 5HT2A Activity (% Max Activation @ 0.3 uM)
Format: cell-based
Counter-ions that a name gives are not always drawn.
ENDPOINT: Emax at 0.3 µM (%)
Reply numerically in %, unit not repeated.

Reference set, count: 3
COMPOUND	ASSAYED SYSTEM	ENDPOINT	UNITS	NUMERIC RESULT
COc1ccc(OC)c(CCNCc2cccc(C)c2Cl)c1	5HT2A (Homo sapiens, UniProt P28223)	Emax at 0.3 µM	%	64
COc1cc([S@](C)(=N)=O)c(OC)cc1CCNCc1cc(C)cc(Cl)c1	5HT2A (Homo sapiens, UniProt P28223)	Emax at 0.3 µM	%	56
COc1ccc(OC)c2c1CCC(NCc1ccccc1)C2 (stereo not drawn)	5HT2A (Homo sapiens, UniProt P28223)	Emax at 0.3 µM	%	6

Problem: Emax at 0.3 µM lookup needed for COc1ccc(OC)c2c1CCC(NCc1cc(C)cc(Br)c1)C2 (stereo not drawn) , thanks.
Solution: 42

Problem: Same for "COc1cc(SC)c(OC)cc1CCNCc1cc(C)cc(Cl)c1"
Solution: 91

Problem: Continue with COc1cc(C)c(OC)c2c1CC(NCc1cc(C)cc(Cl)c1)CC2 (stereo not drawn) [Compound 1-19, hydrochloride]
Solution: 73

Problem: // next record COc1ccc(OC)c2c1CCC(NCc1cc(C)ccc1Cl)C2 (stereo not drawn)
Solution: 15

Problem: // same read-out, input: COc1ccc(OC)c2c1CCC(NCc1ccc(C)cc1Cl)C2 (stereo not drawn)
Solution: 4

Problem: // same read-out, input: "COc1ccc(OC)c([C@H](O)CNCc2cc(C)cc(Cl)c2)c1"
Solution: 39
